Quick reference: PBM binding z-score of the listed items.
- Test system: PPARg:RXRa 30nM:10nM, anti-RXR (NR concentration 30 nM, RXRa partner concentration 10 nM)
- ASSAY: PBM binding z-score (relative to random genomic background probes); higher = stronger binding; sequences stand for … in GC…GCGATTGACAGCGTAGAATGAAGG

SEQUENCE STRING: CCGGCTGGGGCAAAGGTTACCATACTCAGTACGA
PBM binding z-score: 6.14
//
SEQUENCE STRING: GTACGAAGGTGAATAGGTCGTTGATGAGTAGGCG
PBM binding z-score: 0.421
//
SEQUENCE STRING: GGAACGAGTGCATTCGAGTTGATAGCATGGCGAT
PBM binding z-score: -0.79
//
SEQUENCE STRING: TCTGGTAGATCAAGCAGGTTAAGAAAGCCTGAGT
PBM binding z-score: 2.17
//
SEQUENCE STRING: AGAATGAGGTTACCAAAGATCAGGGACACGCTTG
PBM binding z-score: 0.908
//
SEQUENCE STRING: CGTCAAAGTTCAACTAAGGTAACGGAAAGCACGC
PBM binding z-score: 1.99
//
SEQUENCE STRING: CCTACTGGGCCAGGGTCATTGATCAGTCAAAGCA
PBM binding z-score: 0.898
//
SEQUENCE STRING: TCGAGTAGGTTAGGGGCATTGAGAATGGCGTCGA
PBM binding z-score: 1.38
//
SEQUENCE STRING: TGCATGAGGTTATAAGATCAGGGAACGTTGCAAA
PBM binding z-score: 0.448
//
SEQUENCE STRING: ACTCGGAGGACAAAGGTCAGACCTACGCCAGTGA
PBM binding z-score: 4.94
//
SEQUENCE STRING: CCTACGGGGCCATCAGGTCATTGATATCAACGTT
PBM binding z-score: 0.224
//
SEQUENCE STRING: CCTACTGGGACAAAGGTCATTGATTCCAATGCTC
PBM binding z-score: 12.2
//
SEQUENCE STRING: TATACAGGGTCAAAGGCCACAGTACGAATGTCGA
PBM binding z-score: 7.28
//
SEQUENCE STRING: AGAACAAGGGCACGCTGAGTTGATAGCAGAGTAG
PBM binding z-score: 0.364
//
SEQUENCE STRING: TAGCCTAGGTCATTCGGGGGCCAGTATAGAAAGC
PBM binding z-score: 1.38
//
SEQUENCE STRING: TGTATTAGTTGAAGGGCAACCGACGAGTCCGTTT
PBM binding z-score: 0.864
//
SEQUENCE STRING: CTCGAAAGGTCGTGCTCAGGTGAGTCTACCAAAC
PBM binding z-score: 0.42
//
SEQUENCE STRING: TCTATTAGTTGCAGGGCAACCGACGAGTCCGTTT
PBM binding z-score: 3.41
//
SEQUENCE STRING: CGTCCAAGGTCATAGCAGGTCAGTGAAGACAGAT
PBM binding z-score: 2.03
//
SEQUENCE STRING: ATTCAAAGTTCAGGACGAGGTAACGTAAAGCACG
PBM binding z-score: 1.01
//
SEQUENCE STRING: AGAACAAGGGCAATGAGTTGATAGCACGGGTGGC
PBM binding z-score: -0.195
//
SEQUENCE STRING: ATTGAAAGGTCGAGGTGAGTATAGAGAAAGGGAA
PBM binding z-score: 1.72
//
SEQUENCE STRING: CCTCGGAGGCCAACAGGAGGTCAGAGCTGCCAGA
PBM binding z-score: -0.921
//
SEQUENCE STRING: CCGACTGGCGCAAAGGTTACCATACTCAGTACGA
PBM binding z-score: 4.81
//
SEQUENCE STRING: CCGACTGTGGCAAGGTTACCATAACGCACAGCCA
PBM binding z-score: -0.132
//
SEQUENCE STRING: GCAGACAGGCGAAACGCAGGTAACTCAGGGTGGC
PBM binding z-score: -0.326
//
SEQUENCE STRING: TCTAGGTGGTCACGGAGGTCACACACGACGGGTA
PBM binding z-score: 3.06
//
SEQUENCE STRING: TCATATAGGTAAACATGTGAAAGTCCGTAAGTTA
PBM binding z-score: 3.92
//
SEQUENCE STRING: CCTTACGGGTCAAGGTTATAACACGGGTGGTACG
PBM binding z-score: 2.22
//
SEQUENCE STRING: ACTCGGAGGACAAAGGTCAGAGCTACGCCAGTGA
PBM binding z-score: 5.63
//
SEQUENCE STRING: CGTCCAAGGTCATAGGAGGGCAGTGAAGACAGAT
PBM binding z-score: 1.85
//
SEQUENCE STRING: CCTAGCAGGCCACTCTGGGTCACTCAAGGCTTGA
PBM binding z-score: -0.56
//
SEQUENCE STRING: CCGACTGGGGCATAAGGTTACGATAAGCCAGCCC
PBM binding z-score: 1.47
//
SEQUENCE STRING: TATACAGGGACAAAGGCCAGAGTACGAATGTCGA
PBM binding z-score: 2.12
